system: PPARg DBDmut:RXRa IVT, anti-PPARg (DBD mutation: PPARg1 K132A/R137A, NR concentration 270 nM, RXRa partner concentration 90 nM); assay: PBM binding z-score (relative to random genomic background probes); higher = stronger binding; sequences stand for … in GC…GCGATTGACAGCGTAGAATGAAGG
Would you mind labelling by PBM binding z-score? At or over 0.7 is true, under is false.

Answered examples (3):
| BIOPOLYMER_SEQUENCE | DISCRETE_LABEL |
| --- | --- |
| CCGTACGGGTCAAGGTTATAGCACGGGTGGTACG | false |
| TCATATAGGTGAAAGGTGAAAGTCGGTGTGGTAA | true |
| GCTTACGGGTGAAAGGTTATAGCATGAATAGAAT | false |

Confirm if PBM binding z-score reported for the sequence CCAACTAGGTCATTGACAGGACAGTGAATAGTAA is 0.7 or above.
true

Please tell me: is the sequence CCGACTGGGTCAAAGGTTACCATACTCAGTACGA at or over 0.7 in terms of PBM binding z-score?
true

Textbook exercise: given the entry TTACCGAGGTGAAAGGTCGTTGATGCACGCCTTG , state whether its PBM binding z-score is greater than or equal to 0.7.
false

Does the sequence CCTACTGGGCCAAAAAGGTAATTGATGCCGATAA have recorded PBM binding z-score that is 0.7 or more?
false

Dear colleague, could you confirm whether CGTCCAAGGTCAAAGGTCACTGAAGAGATGACGG has PBM binding z-score at or above 0.7?
true

Item CCTAGTTGGTCAAGGTAACACACGCTATAGGTAC with PBM binding z-score of 0.7 or above?
false

Please tell me: is the sequence CAAACTAGGTCACCGGAAGGTCATAGTCCGCATG at or over 0.7 in terms of PBM binding z-score?
true

Determine whether this sequence has PBM binding z-score no lower than 0.7: TAGCATAGGTCATGCGGGCCAGTATAGTGTCGGC
false

Determine whether measured PBM binding z-score meets or exceeds 0.7 for TCTCGGAGGACACGAAAGGTGAGAGCTCGACATC
false

Record ATCTCTAGGTCAAAGTTCAGTGAATCCCGAGGAT ; criterion: PBM binding z-score no lower than 0.7. Met?
true

Assess whether reported PBM binding z-score for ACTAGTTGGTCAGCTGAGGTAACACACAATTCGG sits at 0.7 or higher.
false

Check if PBM binding z-score >= 0.7 (inclusive). Item: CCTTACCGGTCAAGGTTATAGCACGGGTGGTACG
false

Quick check, PBM binding z-score >= 0.7? CAAACTAGGTCAAGGTCAAAGTAGGTTTGTGCCA
true

###

tested on: PPARg:RXRa (NR concentration 180 nM, RXRa partner concentration 90 nM); assay: PBM binding z-score (relative to random genomic background probes); higher = stronger binding; sequences stand for … in GC…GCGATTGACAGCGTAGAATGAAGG
Mark Fulfilled for reported PBM binding z-score of 4 or greater; mark Not fulfilled for anything smaller.

Reference set, count: 5
| BIOPOLYMER_SEQUENCE | TGT | DISCRETE_LABEL |
| --- | --- | --- |
| CAAACTAGGTCAAAGGTCAAAGTTGAGCCAACCA | PPARg:RXRa (NR concentration 180 nM, RXRa partner concentration 90 nM) | Fulfilled |
| CGAGCTAGGTCACCAGGACAGTGAAGAGGTTGGA | PPARg:RXRa (NR concentration 180 nM, RXRa partner concentration 90 nM) | Not fulfilled |
| CTATGTAGGTTAAGGTGGTCATTCAGTTTGAAAG | PPARg:RXRa (NR concentration 180 nM, RXRa partner concentration 90 nM) | Fulfilled |
| AGTCAAAGTTGATCTAGGTAACGTAAGATATGCT | PPARg:RXRa (NR concentration 180 nM, RXRa partner concentration 90 nM) | Not fulfilled |
| CCGAGTAGGTTACGATGGGGCATTCAGTGCGAAT | PPARg:RXRa (NR concentration 180 nM, RXRa partner concentration 90 nM) | Not fulfilled |

Now look at this one.
Item CCTGCTAGGTCAATGGTCAGCTAAAGCAGCTCGC with PBM binding z-score of 4 or above?
Fulfilled
